test: Study .2: multiple rising dose trial in diabetic patients, once daily for 8 days, pharmacokinetic parameters; assay type: in vivo, human; settings: human, plasma, oral, 25 mg, 25 mg once daily, steady state, Study .2, fasted; read-out: Cmax,ss Median
Metric: Cmax (nM)
Answer with a number only, understood to be in nM.

**Q:** Could you share which Cmax value was measured for `OC[C@H]1O[C@@H](c2ccc(Cl)c(Cc3ccc(O[C@H]4CCOC4)cc3)c2)[C@H](O)[C@@H](O)[C@@H]1O` ?
**A:** 603

---

assay: Pharmacokinetic profile in fasting humans, ranges over Studies .1 to .5; type: in vivo; conditions: human, plasma, oral, 50 mg, single dose of 50.0 mg, read-out: AUC0-inf
Metric: AUC(0-inf)

**Q:** Could you share which AUC(0-inf) value was measured for `OC[C@H]1O[C@@H](c2ccc(Cl)c(Cc3ccc(O[C@H]4CCOC4)cc3)c2)[C@H](O)[C@@H](O)[C@@H]1O` ?
**A:** 6.45 to 14.1 µM·h
